Data provenance is patent US20200317779A1.

Would you mind telling me the reported koff of each entry?
System Tested: recombinant human CD3ε/δ heterodimer (human) (UniProt P07766)
Sequence (P07766 23-126, stated change not applied, chain 1 of 2): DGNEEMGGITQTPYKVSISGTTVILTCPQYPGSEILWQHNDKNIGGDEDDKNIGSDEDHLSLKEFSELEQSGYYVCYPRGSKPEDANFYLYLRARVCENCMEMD
Sequence (P04234 22-105, stated change not applied, chain 2 of 2, further chain): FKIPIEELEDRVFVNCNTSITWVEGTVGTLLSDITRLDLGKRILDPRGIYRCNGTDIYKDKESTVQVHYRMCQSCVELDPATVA
Assay: BLI (Octet), antigen on anti-Penta His sensor, antibody 50 nM
// return numeric value only (unit: s⁻¹, not printed)

// koff lookup, key: A16 (antibody, human IgG1, lambda, L234A L235A, V domains shown) VH: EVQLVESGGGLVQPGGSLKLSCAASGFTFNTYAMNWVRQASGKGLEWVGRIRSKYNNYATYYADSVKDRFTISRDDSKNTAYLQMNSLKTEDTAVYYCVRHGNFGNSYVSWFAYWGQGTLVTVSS VL: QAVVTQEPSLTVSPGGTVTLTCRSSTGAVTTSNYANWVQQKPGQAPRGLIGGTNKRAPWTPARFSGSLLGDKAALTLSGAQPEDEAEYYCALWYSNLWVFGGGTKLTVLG
8.07e-05

Next up: H15 (antibody, human IgG1, lambda, L234A L235A, V domains shown) VH: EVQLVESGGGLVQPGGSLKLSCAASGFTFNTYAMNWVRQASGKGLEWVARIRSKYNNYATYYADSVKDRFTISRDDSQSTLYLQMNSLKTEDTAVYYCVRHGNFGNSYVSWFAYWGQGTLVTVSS VL: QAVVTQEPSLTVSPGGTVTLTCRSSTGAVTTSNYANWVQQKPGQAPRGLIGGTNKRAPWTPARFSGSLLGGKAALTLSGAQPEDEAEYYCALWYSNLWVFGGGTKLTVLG
0.000189

Then this binder: B08 (antibody, human IgG1, lambda, L234A L235A, V domains shown) VH: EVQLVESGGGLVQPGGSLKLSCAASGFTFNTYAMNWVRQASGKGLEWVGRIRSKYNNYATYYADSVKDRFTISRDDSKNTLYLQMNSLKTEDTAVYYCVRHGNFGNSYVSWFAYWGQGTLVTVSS VL: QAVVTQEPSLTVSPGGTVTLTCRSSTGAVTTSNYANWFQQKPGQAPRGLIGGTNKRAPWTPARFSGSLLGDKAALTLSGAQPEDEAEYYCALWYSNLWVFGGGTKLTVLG
0.00407
